Molecular target: T1, recombinant human TNFR2 antigen (Kangdai, batch number A100114U) (human, UniProt P20333 23-257)
T1 construct: also called hTNFR2; TNFR2-FC (Shanghai Saijin Biopharmaceutical Co., Ltd., Qiangke, catalog number A100114U); not shown: Fc part of the bought TNFR2-FC
T1 sequence (looked up): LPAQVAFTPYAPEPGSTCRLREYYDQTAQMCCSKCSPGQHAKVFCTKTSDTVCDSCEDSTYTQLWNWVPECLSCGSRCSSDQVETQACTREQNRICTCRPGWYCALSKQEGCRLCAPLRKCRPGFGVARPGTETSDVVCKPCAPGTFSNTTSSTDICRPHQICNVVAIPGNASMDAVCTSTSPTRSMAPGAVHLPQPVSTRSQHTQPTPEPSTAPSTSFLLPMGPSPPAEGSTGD
Experiment: ELISA, plate coated with recombinant human TNFR2 antigen
Reported Endpoint: EC50 (nM)
Report the figure in nM without appending any unit label.

Query string: // EC50 lookup, key: anti-human TNFR2 mouse monoclonal antibody 12E12 (antibody, V domains shown) VH: EVQLQQSGAELVKPGASVKLSCTVSGFNIKDFYIHWVKQRPEQGLEWIGRVDPEDGNTEYAPNFQDRATMTTDTSSNTAYLQLSSLTSVDTAVYYCSTWDGFSYFDYWGLGTTLTVSS VL: QAVVTQESALTTSPGETVTLTCRSSTGPVTTNNYANWVQEKPDHLFTGLIGGTNDRAPGVPARFSGSLIGDKTALTITGTQTEDEAVYFCALWYRNHWVFGGGTKLTVL
Result string: 0.474

Query string: Would you kindly share the measured EC50 for anti-human TNFR2 mouse monoclonal antibody 7F2 (antibody, V domains shown) VH: QVTLKESGPGILQPSQTLSLTCSFSGFSLNTFGLGVGWIRQPSGKGLEWLTHIWWNDDKYYNPALKSRLTISRDTSENLVFLKIANVDTADTATYYCARIEGLRRFDYWGQGTTLTVSS VL: DIQMTQSPSSLSASLGGKVTITCKTSQDINKFIAWYQHKPGKGPRLLIHYTSTLQPGIPSRFSGSGSGRDYSFSISDLEPEDIATYYCLQYANLWAFGGGTKLEIK ?
Result string: 0.418

Query string: # EC50 lookup, item anti-human TNFR2 mouse monoclonal antibody 27F6 (antibody, V domains shown) VH: EVQLQQSGTVLARPGASVKMSCKTSGYTFTSYWMHWVKQRPGQGLEWIGTIYPGNSDTSYNQKFKGKAKLTAVTSASTAYMELNSLTNEDSAVFYCTRENLLLRSYFFDYWGQGTTLTVSS VL: DIVMTQSPASLAVSLGQRATISCKASQSVDYDGDSYLNWYQQKPGQPPKLLIYAASNLPSGIPARFSGSGSGTDFTLNIHPVEEEDAATYYCQQSNEDPRTFGGGTKLEIK
Result string: 0.245

Query string: Which EC50 value is on record for anti-human TNFR2 mouse monoclonal antibody 29A1 (antibody, V domains shown) VH: QVQLQQSGAEVVRPGASVTLSCKASGYTFSDYEMHWVKQTPVHGLEWIGAIDPETGDTAYNQKFKDKARVTADKSSSTAYMELRSLTSEDSAVYYCTRDIHYYGSSLSYFDYWGQGTTLTVSS VL: DIVMTQSQKFMSTSVGDRVSVTCKASQNVGTNVAWYQQKPGQSPKVMIYSASYRYSGAPDRFTGSGSGTDFTLTVNNVQSEDLAEYFCQQYKTYPYTFGGGTKLEIE ?
Result string: 0.171
